# study.target: Human MrgprX2 (Homo sapiens)
# Construct: expressed in transfected cells; host or cells: recombinant cells
# Sequence (Q96LB1 1-330): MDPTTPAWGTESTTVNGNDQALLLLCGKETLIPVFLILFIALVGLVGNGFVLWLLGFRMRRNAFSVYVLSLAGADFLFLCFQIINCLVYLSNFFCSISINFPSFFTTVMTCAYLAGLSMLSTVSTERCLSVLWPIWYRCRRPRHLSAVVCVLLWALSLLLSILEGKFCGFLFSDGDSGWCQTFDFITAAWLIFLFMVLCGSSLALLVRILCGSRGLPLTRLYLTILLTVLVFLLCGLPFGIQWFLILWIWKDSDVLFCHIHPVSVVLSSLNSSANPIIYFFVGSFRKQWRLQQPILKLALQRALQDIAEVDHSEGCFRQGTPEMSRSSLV
# assay.info: FLIPR intracellular calcium mobilization antagonist assay in recombinant hMrgpMRGPRX2 expressing cells
# Format: cell-based
# experimental.parameters: antagonist activity, read-out: Human MrgprX2 Antagonist pIC50 (converted)
observable: IC50 (nM)

CCN(CC(C)(O)C(F)(F)F)C(=O)Nc1nnc(Cc2cccc(F)c2)s1 (single isomer, unassigned) [Example E52] : 50.1

A = CN(CC(C)(O)C(F)(F)F)C(=O)Nc1nnc(Cc2cccc(F)c2)s1 (single isomer, unassigned) [Example E51]
B = CCN(C[C@@H](O)C(F)(F)F)C(=O)Nc1nnc(Cc2cc(Cl)cc(Cl)c2)s1
C = CN(CC(C)(O)C(F)(F)F)C(=O)Nc1nnc(Cc2cc(F)cc(F)c2)s1 (stereo not shown)
[in] Please put the entries in order of rising IC50. Please respond by ranking the labels in the order requested.
[out] C, B, A

* * *

# study.target: Human MrgprX2 (Homo sapiens)
# Construct: expressed in transfected cells; host or cells: recombinant cells
# assay.info: FLIPR intracellular calcium mobilization antagonist assay in recombinant hMrgpMRGPRX2 expressing cells
# Type: cell-based
# experimental.parameters: antagonist activity, read-out: Human MrgprX2 Antagonist pIC50 (converted)
observable: IC50 (nM)

CCN(C[C@H](C)O)C(=O)Nc1nnc(Cc2ccc(F)c(Cl)c2)s1 [Example E35] : 794
CC(C)C(=O)Nc1nnc(Cc2ccc(F)c(F)c2)s1 [Example E06] : 1580

1 = CN(C[C@@H](O)C(F)(F)F)C(=O)Nc1nnc(Cc2cc(F)cc(Cl)c2)s1 [Example E47]
2 = CC(C)C(=O)Nc1nnc(Cc2cccc(F)c2)s1 [Example E01]
3 = CC(C)C(=O)Nc1nnc(Cc2cc(F)cc(F)c2)s1 [Example E03]
[in] Please put the entries in order of rising IC50. Please respond by ranking the labels in the order requested.
[out] 1, 3, 2

* * *

# study.target: Human MrgprX2 (Homo sapiens)
# Construct: expressed in transfected cells; host or cells: recombinant cells
# assay.info: FLIPR intracellular calcium mobilization antagonist assay in recombinant hMrgpMRGPRX2 expressing cells
# Format: cell-based
# experimental.parameters: antagonist activity, read-out: Human MrgprX2 Antagonist pIC50 (converted)
# Excerpt: [Worded in the source for another species; this species is reported under the same test.] The assays used to determine potencies are functional read-out looking at intracellular calcium mobilization using the FLIPR™ technology. In these FLIPR assays, we test the identified compounds using recombinant cellular systems expressing mouse MrgprB2, mouse MrgprA1, gerbil MrgpMRGPRX2 orthologue, Chinese hamster MrgpMRGPRX2 orthologue and cynomolgus monkey MrgpMRGPRX2 orthologue, respectively for orthologue activity.
observable: IC50 (nM)

Completed entries (count: 2):
CC(CO)N(C)C(=O)Nc1nnc(Cc2cc(F)cc(F)c2)s1 (centres unmarked) : 3980
CCN(C[C@H](C)O)C(=O)Nc1nnc(C(C)(C)c2cc(F)cc(F)c2)s1 : 2510

1 = CCN(C[C@@H](O)C(F)(F)F)C(=O)Nc1nnc(Cc2cccc(F)c2)s1
2 = CC(C)C(=O)Nc1nnc(Cc2cc(F)ccc2F)s1
3 = CN(C[C@@](C)(O)C(F)(F)F)C(=O)Nc1nnc(Cc2cc(F)cc(F)c2)s1
[in] Please put the entries in order of rising IC50. Please respond by ranking the labels in the order requested.
[out] 3, 1, 2

* * *

# study.target: Human MrgprX2 (Homo sapiens, UniProt Q96LB1)
# Construct: expressed in transfected cells; host or cells: recombinant cells
# Sequence (Q96LB1 1-330): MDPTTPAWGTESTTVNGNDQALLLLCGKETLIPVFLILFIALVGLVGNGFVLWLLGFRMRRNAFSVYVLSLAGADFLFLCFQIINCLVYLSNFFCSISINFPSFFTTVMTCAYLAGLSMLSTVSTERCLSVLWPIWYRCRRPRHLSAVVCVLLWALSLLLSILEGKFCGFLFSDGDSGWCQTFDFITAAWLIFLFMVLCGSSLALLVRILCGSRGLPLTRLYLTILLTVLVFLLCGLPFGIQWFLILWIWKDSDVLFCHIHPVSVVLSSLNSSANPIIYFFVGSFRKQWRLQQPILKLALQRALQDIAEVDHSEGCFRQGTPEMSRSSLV
# assay.info: FLIPR intracellular calcium mobilization antagonist assay in recombinant hMrgpMRGPRX2 expressing cells
# Format: cell-based
# experimental.parameters: antagonist activity, read-out: Human MrgprX2 Antagonist pIC50 (converted)
observable: IC50 (µM)

CCN(C[C@@H](O)C(F)(F)F)C(=O)Nc1nnc(Cc2cc(F)cc(F)c2)s1 : 0.00794
CCN(C[C@H](C)O)C(=O)Nc1nnc(Cc2cc(F)cc(Cl)c2)s1 : 0.1
CCN(C[C@@H](O)C(F)(F)F)C(=O)Nc1nnc(Cc2cc(C)cc(F)c2)s1 : 0.0692

a = CC(C)NC(=O)c1nnc(Cc2cc(F)cc(F)c2)s1
b = CCN(CC(C)(C)O)C(=O)Nc1nnc(Cc2cc(F)cc(Cl)c2)s1
[in] Of the pair a and b , name the member with the lesser recorded IC50. Your answer should be the label attached to the chosen record.
[out] b

* * *

# study.target: Human MrgprX2 (Homo sapiens, UniProt Q96LB1)
# Construct: expressed in transfected cells; host or cells: recombinant cells
# assay.info: FLIPR intracellular calcium mobilization antagonist assay in recombinant hMrgpMRGPRX2 expressing cells
# Assay type: cell-based
# experimental.parameters: antagonist activity, read-out: Human MrgprX2 Antagonist pIC50 (converted)
observable: IC50 (nM)

Completed entries (count: 9):
CN(C[C@](C)(O)C(F)(F)F)C(=O)Nc1nnc(Cc2cc(F)cc(F)c2)s1 [Example E54] : 126
CCN(C[C@H](C)O)C(=O)Nc1nnc(Cc2cc(Cl)ccc2F)s1 [Example E34] : 3980
CCN(CC(C)(C)O)C(=O)Nc1nnc(Cc2cccc(F)c2)s1 [Example E39] : 724
CN(CC(C)(O)C(F)(F)F)C(=O)Nc1nnc(Cc2cccc(F)c2)s1 (single isomer, unassigned) [Example E50] : 295
O=C(Nc1nnc(Cc2cc(F)cc(F)c2)s1)N1CCC(C(F)(F)F)C1 (centres unmarked) [Example E29] : 631
CN(CC(C)(C)O)C(=O)Nc1nnc(Cc2cc(Cl)cc(Cl)c2)s1 [Example E44] : 162
O=C(Nc1nnc(Cc2cc(F)cc(F)c2)s1)N1CCC[C@@H]1CO [Example E16] : 2000
O=C(Nc1nnc(Cc2cc(F)cc(F)c2)s1)N1CC[C@H](O)C1 [Example E28] : 5010
CC1(C(=O)Nc2nnc(Cc3cc(F)cc(F)c3)s2)CCOC1 (centres unmarked) [Example E08] : 2000

A = CC1(C(=O)Nc2nnc(Cc3cc(F)cc(F)c3)s2)CCOCC1 [Example E07]
B = O=C(Nc1nnc(Cc2cc(F)cc(F)c2)s1)N1CCCC1 [Example E25]
[in] Of the pair A and B , name the member with the lesser recorded IC50. Your answer should be the label attached to the chosen record.
[out] A

* * *

# study.target: Human MrgprX2 (Homo sapiens)
# Construct: expressed in transfected cells; host or cells: recombinant cells
# assay.info: FLIPR intracellular calcium mobilization antagonist assay in recombinant hMrgpMRGPRX2 expressing cells
# Type: cell-based
# experimental.parameters: antagonist activity, read-out: Human MrgprX2 Antagonist pIC50 (converted)
observable: IC50 (nM)

Completed entries (count: 2):
CCN(C[C@H](C)O)C(=O)Nc1nnc(Cc2cc(F)ccc2F)s1 : 2000
CCN(CC(C)(O)C(F)(F)F)C(=O)Nc1nnc(Cc2cccc(F)c2)s1 (stereo not drawn) [Example E42] : 47.9

1 = CN(CC1(O)CC1)C(=O)Nc1nnc(Cc2cc(F)cc(F)c2)s1
2 = CN(CC1CCOC1)C(=O)Nc1nnc(Cc2cc(F)cc(F)c2)s1 (stereo not drawn)
3 = CN(CC(C)(C)O)C(=O)Nc1nnc(Cc2cc(F)cc(F)c2)s1
[in] Rank entries according to their IC50, from the largest number down. Please respond by ranking the labels in the order requested.
[out] 2, 1, 3

* * *

# study.target: Human MrgprX2 (Homo sapiens, UniProt Q96LB1)
# Construct: expressed in transfected cells; host or cells: recombinant cells
# Sequence (Q96LB1 1-330): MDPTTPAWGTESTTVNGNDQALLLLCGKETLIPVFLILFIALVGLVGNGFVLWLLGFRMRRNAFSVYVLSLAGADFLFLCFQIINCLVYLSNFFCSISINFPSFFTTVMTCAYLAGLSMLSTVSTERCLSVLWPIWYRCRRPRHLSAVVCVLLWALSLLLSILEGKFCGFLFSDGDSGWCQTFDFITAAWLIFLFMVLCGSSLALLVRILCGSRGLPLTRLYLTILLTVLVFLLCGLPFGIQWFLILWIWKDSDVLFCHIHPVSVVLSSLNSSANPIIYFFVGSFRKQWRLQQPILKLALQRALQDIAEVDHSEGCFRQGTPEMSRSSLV
# assay.info: FLIPR intracellular calcium mobilization antagonist assay in recombinant hMrgpMRGPRX2 expressing cells
# Type: cell-based
# experimental.parameters: antagonist activity, read-out: Human MrgprX2 Antagonist pIC50 (converted)
# Source text: [Worded in the source for another species; this species is reported under the same test.] The assays used to determine potencies are functional read-out looking at intracellular calcium mobilization using the FLIPR™ technology. In these FLIPR assays, we test the identified compounds using recombinant cellular systems expressing mouse MrgprB2, mouse MrgprA1, gerbil MrgpMRGPRX2 orthologue, Chinese hamster MrgpMRGPRX2 orthologue and cynomolgus monkey MrgpMRGPRX2 orthologue, respectively for orthologue activity.
observable: IC50 (nM)

CCN(CC(C)(O)C(F)(F)F)C(=O)Nc1nnc(Cc2cccc(F)c2)s1 (single isomer, unassigned) [Example E53] : 3390
C[C@@H](O)CN(C)C(=O)Nc1nnc(Cc2cc(F)cc(F)c2)s1 : 3980

A = CCN(C[C@@H](O)C(F)(F)F)C(=O)Nc1nnc(Cc2cccc(Cl)c2)s1
B = Cc1cc(F)cc(Cc2nnc(NC(=O)N(C)C[C@@](C)(O)C(F)(F)F)s2)c1
[in] Of the pair A and B , name the member with the lesser recorded IC50. Your answer should be the label attached to the chosen record.
[out] B
(B: 85.1 nM, A: 158 nM)

The reported numbers originate from patent US20230002336A1.
